Would you mind telling me the reported average fluorescence intensity of each entry?
target: T1, human 4-1BB, full length, on transfected cells (human, UniProt Q07011 24-255); experiment: FACS, CHOK1-h4-1BB cells; Ab 10 ug/ml
T1 construct: whole, on cells; also called CHOK1-h4-1BB
T1 sequence (Q07011 24-255): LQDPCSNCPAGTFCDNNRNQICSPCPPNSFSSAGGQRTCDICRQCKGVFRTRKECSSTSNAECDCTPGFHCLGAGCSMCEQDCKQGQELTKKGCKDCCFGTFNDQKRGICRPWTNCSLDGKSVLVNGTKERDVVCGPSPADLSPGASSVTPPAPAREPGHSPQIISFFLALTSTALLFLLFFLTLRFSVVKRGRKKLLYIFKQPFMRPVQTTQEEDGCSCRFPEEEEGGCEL
Report the value in MFI with no unit label.

// query Supply measured average fluorescence intensity of 172E3E3 (antibody, V domains shown) VH: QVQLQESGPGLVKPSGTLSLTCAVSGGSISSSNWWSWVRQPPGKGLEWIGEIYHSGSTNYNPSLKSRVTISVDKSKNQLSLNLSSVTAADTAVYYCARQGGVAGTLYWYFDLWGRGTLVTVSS VL: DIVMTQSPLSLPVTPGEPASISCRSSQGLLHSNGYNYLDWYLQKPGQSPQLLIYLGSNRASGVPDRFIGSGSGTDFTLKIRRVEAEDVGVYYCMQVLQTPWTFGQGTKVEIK in your reply.
// result 489

// query Give recorded average fluorescence intensity. 11H10C9 (antibody, V domains shown) VH: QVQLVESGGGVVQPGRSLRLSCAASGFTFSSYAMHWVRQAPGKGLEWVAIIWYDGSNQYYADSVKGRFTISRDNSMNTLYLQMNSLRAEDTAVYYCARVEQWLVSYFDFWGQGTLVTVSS VL: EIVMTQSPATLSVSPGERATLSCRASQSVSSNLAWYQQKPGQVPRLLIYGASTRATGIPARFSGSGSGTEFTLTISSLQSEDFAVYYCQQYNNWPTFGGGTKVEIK
// result 498

// query Using known records, supply average fluorescence intensity for 118F3A2 (antibody, V domains shown) VH: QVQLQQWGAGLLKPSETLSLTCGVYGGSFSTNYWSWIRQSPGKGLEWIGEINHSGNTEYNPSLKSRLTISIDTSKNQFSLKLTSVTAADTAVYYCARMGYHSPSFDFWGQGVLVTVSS VL: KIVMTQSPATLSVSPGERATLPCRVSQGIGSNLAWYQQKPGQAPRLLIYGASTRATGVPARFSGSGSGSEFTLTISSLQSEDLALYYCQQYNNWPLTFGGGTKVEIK
// result 527
